- testSystem: ATF6 (Homo sapiens)
- Sequence (P18850 306-369 limits assumed): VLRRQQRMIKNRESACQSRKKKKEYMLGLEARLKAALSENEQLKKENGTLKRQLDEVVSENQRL
- protocolSummary: Direct-binding FRET assay
- Design: made in house
- setupConditions: 37°C; C-terminal rhodamine design; mean or single; read-out: Kd
Where no end group is shown, it is not given here.
valueKind: Kd

Consider the following illustrative entries.
{"columns": ["residueString", "valueKind", "experimentalValue"],
 "data": [
  ["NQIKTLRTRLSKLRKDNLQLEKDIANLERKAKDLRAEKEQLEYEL [ATF4-d1]", "Kd", "> 1000 nM"],
  ["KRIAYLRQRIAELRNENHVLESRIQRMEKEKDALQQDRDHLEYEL [ATF5-d1]", "Kd", "> 1000 nM"]
]}

Here is the next item to consider.
**Query** Write down measured Kd (ATF6 (Homo sapiens)) for this sequence. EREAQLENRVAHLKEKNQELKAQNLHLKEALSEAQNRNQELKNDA [XBP1-d1]
**Result** > 5000 nM
